Target: HLA-B*58:01
Test: IEDB peptide-MHC binding, purified MHC/direct/fluorescence; filed as Kd, often an IC50 or EC50 that approximates it; bounds were set here for any values at or beyond the usual limits of such assays
Conditions: source organism: Salmonella enterica

- sequence.input: "RSRCRLHHL"
  result.comparator: "="
  Kd / nM: 598
- sequence.input: "EIIFYHPTF"
  result.comparator: "≥"
  Kd / nM: 20000

###

Target: HLA-B*39:01
Assay: IEDB peptide-MHC binding, purified MHC/competitive/fluorescence; filed as Kd, often an IC50 or EC50 that approximates it; bounds were set here for any values at or beyond the usual limits of such assays
Details: source organism: Salmonella enterica subsp. enterica serovar Typhimurium str. LT2
pKd: −log10 of the molar value.

- sequence.input: "ILNSDDEQA"
  tgt: "HLA-B*39:01"
  pKd: "≤ 4.70"

###

Target: HLA-A*31:01
Assay: IEDB peptide-MHC binding, purified MHC/direct/fluorescence; filed as Kd, often an IC50 or EC50 that approximates it; bounds were set here for any values at or beyond the usual limits of such assays
Settings: source organism: Yellow fever virus 17D

- sequence.input: "VRGGMVAPL"
  Kd: "≥ 20 µM"

###

Biological target: HLA-B*40:01
Assay: IEDB peptide-MHC binding, purified MHC/direct/fluorescence; filed as Kd, often an IC50 or EC50 that approximates it; bounds were set here for any values at or beyond the usual limits of such assays
Details: source organism: Escherichia coli
readout.name: Kd (µM)

- sequence.input: "SHDTIGPYY"
  quantitative.result: 2.92

###

Target: HLA-A*02:01
Test: IEDB peptide-MHC binding, purified MHC/direct/fluorescence; filed as Kd, often an IC50 or EC50 that approximates it; bounds were set here for any values at or beyond the usual limits of such assays
Details: source organism: Burkholderia mallei ATCC 23344
readout.name: Kd

- sequence.input: "LARFPCNVI"
  result: "≥ 20 µM"

###

Molecular target: HLA-B*53:01
Assay: IEDB peptide-MHC binding, purified MHC/competitive/radioactivity; filed as Kd, often an IC50 or EC50 that approximates it; bounds were set here for any values at or beyond the usual limits of such assays
Conditions: source organism: Dengue virus 1 Brazil/97-11/1997
pKd: −log10 of the molar value.
Below is a list of entries, each paired with its recorded pKd value.
readout.name: pKd

- sequence.input: "MASVEPHWI"
  readout.name: "pKd"
  quantitative.result: 5.85
- sequence.input: "FPGKTVWFV"
  readout.name: "pKd"
  quantitative.result: 7.06
- sequence.input: "LPEIEDEVF"
  readout.name: "pKd"
  quantitative.result: 5.91

###

Molecular target: HLA-C*06:02
Assay: IEDB peptide-MHC binding, purified MHC/direct/fluorescence; filed as Kd, often an IC50 or EC50 that approximates it; bounds were set here for any values at or beyond the usual limits of such assays
Conditions: source organism: Mycobacterium tuberculosis variant bovis BCG str. Pasteur 1173P2
readout.name: Kd (nM)

- sequence.input: "YTWNGTQWV"
  readout.name: "Kd"
  quantitative.result: 343

###

Biological target: HLA-A*26:01
Experiment: IEDB peptide-MHC binding, purified MHC/direct/fluorescence; filed as Kd, often an IC50 or EC50 that approximates it; bounds were set here for any values at or beyond the usual limits of such assays
Conditions: source organism: Salmonella enterica subsp. enterica serovar Typhi
pKd: −log10 of the molar value.
readout.name: pKd

- sequence.input: "PSEDEQQGH"
  readout.name: "pKd"
  result: "≤ 4.70"

###

Target: HLA-B*40:13
Assay: IEDB peptide-MHC binding, purified MHC/competitive/fluorescence; filed as Kd, often an IC50 or EC50 that approximates it; bounds were set here for any values at or beyond the usual limits of such assays
Conditions: source organism: Brucella suis 1330

- sequence.input: "RQNAPFEPI"
  Kd, nM: 53.6

###

Molecular target: HLA-A*80:01
Assay: IEDB peptide-MHC binding, purified MHC/direct/fluorescence; filed as Kd, often an IC50 or EC50 that approximates it; bounds were set here for any values at or beyond the usual limits of such assays
Details: source organism: Mammarenavirus lassaense
pKd: −log10 of the molar value.

- sequence.input: "ALTDLGLIY"
  pKd: 8.74

###

Biological target: HLA-B*15:01
Experiment: IEDB peptide-MHC binding, purified MHC/competitive/fluorescence; bounds were set here for any values at or beyond the usual limits of such assays
Conditions: source organism: Variola virus
pIC50: −log10 of the molar value.

- sequence.input: "IIIAVARKH"
  result.comparator: "="
  pIC50: 4.44
- sequence.input: "SQVPKLLLW"
  result.comparator: "≤"
  pIC50: 3.92
- sequence.input: "KLFSYGTLI"
  result.comparator: "="
  pIC50: 4.58

###

Molecular target: HLA-A*68:02
Assay: IEDB peptide-MHC binding, purified MHC/competitive/fluorescence; filed as Kd, often an IC50 or EC50 that approximates it; bounds were set here for any values at or beyond the usual limits of such assays
Conditions: source organism: Giardia lamblia ATCC 50803
pKd: −log10 of the molar value.

- sequence.input: "ALGGSCHTT"
  pKd: "≤ 4.70"

###

Items are presented alongside their recorded pKd.
Target: HLA-B*18:01
Assay: IEDB peptide-MHC binding, purified MHC/competitive/radioactivity; filed as Kd, often an IC50 or EC50 that approximates it; bounds were set here for any values at or beyond the usual limits of such assays
Details: source organism: SARS coronavirus Tor2
pKd: −log10 of the molar value.

- sequence.input: "EEAIRHVRAW"
  result.comparator: "≤"
  pKd: 4.37
- sequence.input: "KDYMSLSEQL"
  result.comparator: "≤"
  pKd: 4.15
- sequence.input: "KETLYRIDG"
  result.comparator: "≤"
  pKd: 4.11
- sequence.input: "KELSPRWYF"
  result.comparator: "="
  pKd: 5.73
- sequence.input: "NELSLALGL"
  result.comparator: "="
  pKd: 7.04
- sequence.input: "WEPEFYEAMY"
  result.comparator: "="
  pKd: 5.78
- sequence.input: "EEHFVETVSL"
  result.comparator: "="
  pKd: 5.98
- sequence.input: "EETFKLSYGI"
  result.comparator: "="
  pKd: 4.71
- sequence.input: "IDYVPLKSAT"
  result.comparator: "≤"
  pKd: 4.15
- sequence.input: "VETFYPKLQA"
  result.comparator: "≤"
  pKd: 4.22
- sequence.input: "SELVIGAVI"
  result.comparator: "="
  pKd: 5.59
- sequence.input: "TEGLCVDIPG"
  result.comparator: "≤"
  pKd: 4.15
- sequence.input: "AEIVDTVSAL"
  result.comparator: "≤"
  pKd: 4.64
- sequence.input: "HEDLMAAYV"
  result.comparator: "="
  pKd: 5.41
- sequence.input: "HECFVKRVDW"
  result.comparator: "="
  pKd: 5.18

###

Target: HLA-A*68:01
Test: IEDB peptide-MHC binding, purified MHC/competitive/radioactivity; filed as Kd, often an IC50 or EC50 that approximates it; bounds were set here for any values at or beyond the usual limits of such assays
Details: source organism: Vaccinia virus WR
Mark Criterion met for Kd under 200 nM, Criterion not met if at or over.

- sequence.input: "YIIRVTTEL"
  tgt: "HLA-A*68:01"
  class: "Criterion not met"
- sequence.input: "TVKMGAFMY"
  tgt: "HLA-A*68:01"
  class: "Criterion met"
- sequence.input: "ATDYIASGQR"
  tgt: "HLA-A*68:01"
  class: "Criterion met"
- sequence.input: "GVIDTMRIY"
  tgt: "HLA-A*68:01"
  class: "Criterion not met"
- sequence.input: "LVTRKCPQKK"
  tgt: "HLA-A*68:01"
  class: "Criterion not met"
- sequence.input: "YITDDSDDY"
  tgt: "HLA-A*68:01"
  class: "Criterion not met"
- sequence.input: "STQSVLCVKK"
  tgt: "HLA-A*68:01"
  class: "Criterion met"
- sequence.input: "DLTQIFEVY"
  tgt: "HLA-A*68:01"
  class: "Criterion not met"
- sequence.input: "KAMLYIIRR"
  tgt: "HLA-A*68:01"
  class: "Criterion met"
- sequence.input: "VLEIINDKGK"
  tgt: "HLA-A*68:01"
  class: "Criterion not met"
- sequence.input: "SIHLTKTDK"
  tgt: "HLA-A*68:01"
  class: "Criterion met"
- sequence.input: "LSCAVHLIIY"
  tgt: "HLA-A*68:01"
  class: "Criterion not met"
- sequence.input: "CANGWIQYDK"
  tgt: "HLA-A*68:01"
  class: "Criterion met"
- sequence.input: "TIISEEYLSK"
  tgt: "HLA-A*68:01"
  class: "Criterion met"
- sequence.input: "STSAADIKR"
  tgt: "HLA-A*68:01"
  class: "Criterion met"
- sequence.input: "PLTSLVITY"
  tgt: "HLA-A*68:01"
  class: "Criterion not met"
- sequence.input: "RLFRSPQVK"
  tgt: "HLA-A*68:01"
  class: "Criterion not met"
- sequence.input: "DTSYYVKEY"
  tgt: "HLA-A*68:01"
  class: "Criterion met"
